assay: Oral bioavailability of hydromorphone conjugates; settings: rats, corrected value calculated based on the control (HM)
Metric name: Oral Cmax %

CC(C)[C@H](NC(=O)[C@@H]1CCCN1C(=O)[C@@H]1CCCN1)C(=O)OC1=CCC2[C@H]3Cc4ccc(O)c5c4[C@@]2(CCN3C)C1O5 (stereo partly drawn): 55%
CC[C@H](C)[C@H](NC(=O)[C@H](Cc1ccc(O)cc1)NC(=O)[C@@H](N)Cc1ccc(O)cc1)C(=O)OC1=CCC2[C@H]3Cc4ccc(O)c5c4[C@@]2(CCN3C)C1O5 (stereo partly drawn): 66%
CC(C)C[C@H](NC(=O)[C@@H]1CCCN1C(=O)[C@@H]1CCCN1)C(=O)OC1=CCC2[C@H]3Cc4ccc(O)c5c4[C@@]2(CCN3C)C1O5 (stereo partly drawn): 45%
